Where do the numbers come from? From paper PMC4380168.

test system: SK-OV-3 (ovarian cancer); assay: Cytotoxicity against SK-OV-3 ovarian carcinoma cell line; assay type: cell-based, human; conditions: Homo sapiens, SK-OV-3, read-out: SK-OV-3 EC50 (ovarian cancer)
QUANTITY: EC50 (nM)
The answer is to be given in nM; state only the numeric part.

Input CC(=O)c1cccc(N[C@H]2[C@H](N)[C@@](NC(=O)N(C)C)([C@H](C)O)[C@@](C)(O)[C@@]2(O)COC(=O)c2c(C)cccc2O)c1 , output reported EC50.
129

* * *

system: MDA-MB-231 (breast cancer); assay: Cytotoxicity against MDA-MB-231 breast carcinoma cell line; format: cell-based; settings: Homo sapiens, MDA-MB-231, read-out: MDA-MB-231 EC50
QUANTITY: EC50

Please give the documented EC50 of CC(=O)c1cccc(N[C@H]2[C@H](N)[C@@](NC(=O)N(C)C)([C@H](C)O)[C@@](C)(O)[C@@]2(O)COC(=O)c2c(C)cccc2O)c1 [Compound 1, pactamycin]
124 nM

* * *

tested on: MRC-5 (human lung fibroblast); experiment: Cytotoxicity against MRC-5 cell line; type: cell-based; settings: read-out: MRC-5 EC50 (human lung fibroblast); triplicates
QUANTITY: pEC50
When answering, recall that pEC50 equals minus log10 of the concentration in mol/L, and write that number alone.

Please respond with reported pEC50 (system MRC-5 (human lung fibroblast)) for CC(=O)c1cccc(N[C@H]2[C@H](N)[C@]3(NC(=O)O[C@H]3C)[C@@](C)(O)[C@@]2(O)CO)c1 [Compound 21, De-6-MSA pactamycate] .
5.53

* * *

test system: MDA-MB-231 (breast cancer); assay: Cytotoxicity against MDA-MB-231 breast carcinoma cell line; type: cell-based; conditions: Homo sapiens, MDA-MB-231, read-out: MDA-MB-231 EC50 (breast cancer)
QUANTITY: pEC50
On this scale, pEC50 is minus log10 of a concentration expressed in M (mol/L).

Name the recorded pEC50 of the compound listed here: CC(=O)c1cccc(N[C@H]2[C@H](N)[C@@](NC(=O)N(C)C)([C@H](C)O)[C@@](C)(O)[C@@]2(O)COC(=O)c2c(C)cccc2O)c1
6.91
